Please go through the items and note down their Bliss excess.
Tested on: NCI-H196 (Small Cell Lung Carcinoma)
runDescription: Bliss excess, mean over the matrix (fraction); higher = more synergy;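 further: after 72 h of two-drug dosing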

Challenge: Bliss excess for CCN(CCO)CCCOc1ccc2c(Nc3cc(CC(=O)Nc4cccc(F)c4)[nH]n3)ncnc2c1 [AZD2811] + C=CCn1c(=O)c2cnc(Nc3ccc(N4CCN(C)CC4)cc3)nc2n1-c1cccc(C(C)(C)O)n1 [AZD1775] (first compound max 1 µM, partner max 1 µM) ?
Response given: -0.0371

Challenge: Try the molecule C=CCn1c(=O)c2cnc(Nc3ccc(N4CCN(C)CC4)cc3)nc2n1-c1cccc(C(C)(C)O)n1 [AZD1775] + O=C(c1cc(Cc2n[nH]c(=O)c3ccccc23)ccc1F)N1CCN(C(=O)C2CC2)CC1 [Olaparib] (first compound max 1 µM, partner max 10 µM)
Response given: -0.0552

Challenge: Try the molecule C=CCn1c(=O)c2cnc(Nc3ccc(N4CCN(C)CC4)cc3)nc2n1-c1cccc(C(C)(C)O)n1 [AZD1775] + C[C@@H]1COCCN1C2=NC(=NC(=C2)C3(CC3)[S@](=N)(=O)C)C4=C5C=CNC5=NC=C4 [AZD6738] (first compound max 1 µM, partner max 10 µM)
Response given: -0.0093

###

Tested on: NCI-H1563 (Lung Adenocarcinoma)
runDescription: Bliss excess, mean over the matrix (fraction); higher = more synergy
reportedEndpoint: Bliss excess

Challenge: Bliss excess for C=CCn1c(=O)c2cnc(Nc3ccc(N4CCN(C)CC4)cc3)nc2n1-c1cccc(C(C)(C)O)n1 [AZD1775] + C[C@@H]1COCCN1C2=NC(=NC(=C2)C3(CC3)[S@](=N)(=O)C)C4=C5C=CNC5=NC=C4 [AZD6738] (first compound max 1 µM, partner max 10 µM) ?
Response given: -0.0303

Challenge: Try the compound Cc1cc2ncnn2cc1Nc1ncc2c(n1)n(C1CCOCC1)c(=O)n2C [AZD7648] + C=CCn1c(=O)c2cnc(Nc3ccc(N4CCN(C)CC4)cc3)nc2n1-c1cccc(C(C)(C)O)n1 [AZD1775] (first compound max 10 µM, partner max 1 µM)
Response given: -0.0041

Challenge: Try the compound CC1(C)CCC(CN2CCN(c3ccc(C(=O)NS(=O)(=O)c4ccc(NCC5CCOCC5)c([N+](=O)[O-])c4)c(Oc4cnc5[nH]ccc5c4)c3)CC2)=C(c2ccc(Cl)cc2)C1 [Venetoclax] + C=CCn1c(=O)c2cnc(Nc3ccc(N4CCN(C)CC4)cc3)nc2n1-c1cccc(C(C)(C)O)n1 [AZD1775] (first compound max 1 µM, partner max 1 µM)
Response given: 0.0451

Challenge: Try the compound Cn1cnc2c(F)c(Nc3ccc(Br)cc3Cl)c(C(=O)NOCCO)cc21 [Selumetinib] + C=CCn1c(=O)c2cnc(Nc3ccc(N4CCN(C)CC4)cc3)nc2n1-c1cccc(C(C)(C)O)n1 [AZD1775] (first compound max 10 µM, partner max 1 µM)
Response given: -0.0393

Challenge: Try the compound CC1(C)CCC(CN2CCN(c3ccc(C(=O)NS(=O)(=O)c4ccc(NCC5CCOCC5)c([N+](=O)[O-])c4)c(Oc4cnc5[nH]ccc5c4)c3)CC2)=C(c2ccc(Cl)cc2)C1 [Venetoclax] + COc1cc(Nc2ncc3c(n2)-c2ccc(Cl)cc2C(c2c(F)cccc2OC)=NC3)ccc1C(=O)O [Alisertib] (first compound max 1 µM, 7x7, partner max 10 µM)
Response given: -0.0523

Challenge: Try the compound Cc1c2c(nn1C)CSCc1cc(n(C)n1)CSc1cc(c3ccccc3c1)OCCCc1c(C(=O)O)n(C)c3c-2c(Cl)ccc13 [AZD5991] + C=CCn1c(=O)c2cnc(Nc3ccc(N4CCN(C)CC4)cc3)nc2n1-c1cccc(C(C)(C)O)n1 [AZD1775] (first compound max 1 µM, partner max 1 µM)
Response given: 0.0004

Challenge: Try the compound Cc1c2c(nn1C)CSCc1cc(n(C)n1)CSc1cc(c3ccccc3c1)OCCCc1c(C(=O)O)n(C)c3c-2c(Cl)ccc13 [AZD5991] + C[C@@H](Nc1cc(F)cc(F)c1)c1cc(C(=O)N(C)C)cc2c(=O)cc(N3CCOCC3)oc12 [AZD8186] (first compound max 1 µM, 7x7, partner max 3 µM)
Response given: 0.0003
